Give measured selectivity ratio for each item. Keep answers brief.
- Procedure summary: LD50 value and Therapeutic index
- Measurement setup: mouse, in vivo, po; ratio of LD50 value to MED for CO2-induced amnesia
- From the text: LD50 value and Therapeutic index Ten mice were used for each group. LD50 value and therapeutic index were estimated with the dose (mg/kg, p.o.) which induced death in 50% of mice and with a ratio of LD50 value to a minimum effective dose (MED) for CO2 -induced amnesia, respectively.

(Q) Give its selectivity ratio value. Item: CON1C(=O)CC2(CCNCC2)C1=O
(A) 20100

(Q) Give its selectivity ratio value. Item: CCN1C(=O)CC2(CCN(C)CC2)C1=O [RS-86, reference compound]
(A) 1910
